Target: RmlC (dTDP‐4‐keto‐6‐deoxyglucose‐3,5‐epimerase) (Streptococcus pyogenes, UniProt Q5XCG7)
Sequence (Q5XCG7 whole entry): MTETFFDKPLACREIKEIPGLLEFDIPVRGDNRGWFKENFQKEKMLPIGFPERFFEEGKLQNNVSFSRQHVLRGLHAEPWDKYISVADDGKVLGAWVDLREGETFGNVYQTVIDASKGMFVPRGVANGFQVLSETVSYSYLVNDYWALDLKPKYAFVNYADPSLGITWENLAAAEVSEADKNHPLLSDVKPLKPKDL
Assay: bio-layer interferometry, dilution series on biotinylated recombinant enzyme
measured-endpoint: Kd

Kd measured on O=C(O)c1ccc(-c2ccc(Cl)cc2)o1 [Ri03, 5‐(4‐chlorophenyl)‐2‐furoic acid] = ~3 mM

====

Biological target: UniProt Q9A045
Sequence (Q9A045 entry or part of it): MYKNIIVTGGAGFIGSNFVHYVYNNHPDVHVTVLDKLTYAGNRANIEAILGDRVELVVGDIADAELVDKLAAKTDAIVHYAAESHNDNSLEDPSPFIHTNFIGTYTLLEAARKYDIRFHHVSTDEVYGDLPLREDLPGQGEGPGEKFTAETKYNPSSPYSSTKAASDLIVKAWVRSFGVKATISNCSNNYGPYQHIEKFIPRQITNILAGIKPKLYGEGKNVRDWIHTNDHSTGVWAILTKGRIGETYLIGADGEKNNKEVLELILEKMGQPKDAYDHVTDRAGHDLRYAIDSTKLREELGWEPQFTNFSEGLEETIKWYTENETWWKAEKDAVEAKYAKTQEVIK
Test: bio-layer interferometry, dilution series on biotinylated recombinant enzyme
measured-endpoint: Kd (µM)
// return numeric value only (unit: µM, not printed)

Kd measured on O=C(O)c1ccc(-c2ccc(Cl)cc2)o1 = 200
